- assay-text: Fluorescence titration of sensor with glutamate
- Type: binding
- setup-conditions: Table 2, analyte glutamate; benzene-based compounds I, excited at 488 nm; pH 5.0, 37° C.

| smiles-entry | Ka (M⁻¹) |
| --- | --- |
| CCN(CC)c1ccc2c(-c3ccc(OC)c(OC)c3)c(C=O)c(=O)oc2c1 | 10.21 |
| CCN(CC)c1ccc2c(-c3ccc(OC)c(F)c3)c(C=O)c(=O)oc2c1 | 8.96 |
| CCN(CC)c1ccc2c(-c3ccc(-c4ccccc4)cc3)c(C=O)c(=O)oc2c1 | 13.84 |
| CCN(CC)c1ccc2c(-c3ccccc3)c(C=O)c(=O)oc2c1 | 9.43 |
| CCN(CC)c1ccc2c(-c3ccc(OC)c(C)c3)c(C=O)c(=O)oc2c1 | 10.25 |
| CCN(CC)c1ccc2c(-c3ccc(SC)cc3)c(C=O)c(=O)oc2c1 | 8.40 |
| CCOC(=O)c1ccc(-c2c(C=O)c(=O)oc3cc(N(CC)CC)ccc23)cc1 | 6.95 |
| CCN(CC)c1ccc2c(-c3cc(OC)c(OC)c(OC)c3)c(C=O)c(=O)oc2c1 | 10.25 |
| CCN(CC)c1ccc2c(-c3ccc(OC)cc3)c(C=O)c(=O)oc2c1 | 9.63 |
| CCN(CC)c1ccc2c(-c3cccc4ccccc34)c(C=O)c(=O)oc2c1 | 10.08 |
| CCN(CC)c1ccc2c(-c3cccc(C)c3)c(C=O)c(=O)oc2c1 | 9.17 |

====

- assay-text: Fluorescence titration of sensor with glutamate
- Format: binding
- setup-conditions: Table 2, analyte glutamate; thiophene-based compounds II, excited at 515 nm
- Description: Fluorescence spectra were recorded on a Shimadzu RF-5301 PC spectrofluorometer at 37° C. A 1 mg/mL stock solution of I-2 in DMSO was prepared. A stock solution of I-2 in buffer (1×10^−5 M, 25 mM HEPES, 50 mM Na2S2O3, pH=5.0) was prepared. […] Fluorescence spectra were recorded on a Shimadzu RF-5301 PC spectrofluorometer at 37° C. […]
Listing of recorded F.E. by entry.
parameter: F.E.

| smiles-entry | parameter | value |
| --- | --- | --- |
| CCN(CC)c1ccc2c(-c3cccs3)c(C=O)c(=O)oc2c1 | F.E. | 57.17 |
| CCN(CC)c1ccc2c(-c3cc(C)cs3)c(C=O)c(=O)oc2c1 | F.E. | 51.15 |
| CCN(CC)c1ccc2c(-c3ccc(Cl)s3)c(C=O)c(=O)oc2c1 | F.E. | 33.96 |
| CCN(CC)c1ccc2c(-c3ccc(C)s3)c(C=O)c(=O)oc2c1 | F.E. | 47.67 |
| CCN(CC)c1ccc2c(-c3cc4ccccc4s3)c(C=O)c(=O)oc2c1 | F.E. | 29.65 |

====

- assay-text: Fluorescence titration of sensor with norepinephrine
- Format: binding
- setup-conditions: Table 2, analyte norepinephrine; thiophene-based compounds II, excited at 515 nm; pH 5.0, 37° C.
Respond with 1 for Ka values of 60 M⁻¹ and above, -1 for values below.

| compound | answer-label |
| --- | --- |
| CCN(CC)c1ccc2c(-c3ccc(Cl)s3)c(C=O)c(=O)oc2c1 [II-4] | 1 |
| CCN(CC)c1ccc2c(-c3cccs3)c(C=O)c(=O)oc2c1 [II-1] | 1 |
| CCN(CC)c1ccc2c(-c3cc4ccccc4s3)c(C=O)c(=O)oc2c1 [II-5] | -1 |
| CCN(CC)c1ccc2c(-c3cc(C)cs3)c(C=O)c(=O)oc2c1 [II-3] | 1 |

Provenance of the data: patent US10330673B2
